Reported kon values for a set of binders
# system tested: T1, ARM repeat domain of human β-catenin (residues 134–671) (human, UniProt P35222 134-671)
# T1 construct: β-catenin, human, ARM repeat domain, residues 134–671; Plasmid was a gift from W.I. Weis; source: E. coli C41, purified (glutathione-Sepharose 4B, thrombin cleavage on resin, Mono-Q)
# T1 sequence (looked up): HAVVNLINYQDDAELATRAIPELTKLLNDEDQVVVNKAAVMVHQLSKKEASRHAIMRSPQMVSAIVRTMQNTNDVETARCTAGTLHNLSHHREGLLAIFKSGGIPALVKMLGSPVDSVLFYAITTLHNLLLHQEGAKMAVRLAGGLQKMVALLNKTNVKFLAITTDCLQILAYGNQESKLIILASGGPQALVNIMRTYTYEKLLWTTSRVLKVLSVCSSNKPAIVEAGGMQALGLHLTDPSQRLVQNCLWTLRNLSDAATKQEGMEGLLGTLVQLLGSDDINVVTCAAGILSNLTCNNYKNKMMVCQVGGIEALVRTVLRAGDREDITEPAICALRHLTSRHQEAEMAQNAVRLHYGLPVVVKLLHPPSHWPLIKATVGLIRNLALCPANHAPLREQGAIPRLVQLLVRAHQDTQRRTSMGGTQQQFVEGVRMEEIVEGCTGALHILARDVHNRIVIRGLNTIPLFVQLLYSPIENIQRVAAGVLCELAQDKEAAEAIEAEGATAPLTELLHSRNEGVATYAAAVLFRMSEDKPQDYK
# assay text: stopped-flow fluorescence kinetics (association); 10 nM fluorescein-labelled TCF7L2 mixed 1:1 with 100–1000 nM unlabelled β-catenin, pseudo-first-order; PBS, 1 mM DTT, 15 °C; kon from the linear fit of kobs against β-catenin concentration
# applied conditions: both partners purified
No end group written: not given here.
parameter measured: kon (M⁻¹ s⁻¹)

binder="TCF7L2 (1–54) S31C E29A, fluorescein-labelled (domain or fragment, UniProt Q9NQB0 1-54, looked up, One extra serine is left behind after thrombin cleavage of the tag; source: E. coli C41, purified (Ni-NTA, thrombin cleavage, Superdex 75), labelled with fluorescein maleimide) MPQLNGGGGDDLGANDELISFKDEGEQEAKC(fluorescein maleimide)SENSSAERDLADVKSSLVNESET" parameter_measured=kon readout_units="M⁻¹ s⁻¹" numeric_value=5.73e+07
binder="TCF7L2 (1–54) S31C E26A, fluorescein-labelled (domain or fragment, UniProt Q9NQB0 1-54, looked up, One extra serine is left behind after thrombin cleavage of the tag; source: E. coli C41, purified (Ni-NTA, thrombin cleavage, Superdex 75), labelled with fluorescein maleimide) MPQLNGGGGDDLGANDELISFKDEGAQEEKC(fluorescein maleimide)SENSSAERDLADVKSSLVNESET" parameter_measured=kon readout_units="M⁻¹ s⁻¹" numeric_value=5.59e+07
binder="TCF7L2 (1–54) S31C L41A, fluorescein-labelled (domain or fragment, UniProt Q9NQB0 1-54, looked up, One extra serine is left behind after thrombin cleavage of the tag; source: E. coli C41, purified (Ni-NTA, thrombin cleavage, Superdex 75), labelled with fluorescein maleimide) MPQLNGGGGDDLGANDELISFKDEGEQEEKC(fluorescein maleimide)SENSSAERDAADVKSSLVNESET" parameter_measured=kon readout_units="M⁻¹ s⁻¹" numeric_value=5.95e+07
binder="TCF7L2 (1–54) S31C E24A, fluorescein-labelled (domain or fragment, UniProt Q9NQB0 1-54, looked up, One extra serine is left behind after thrombin cleavage of the tag; source: E. coli C41, purified (Ni-NTA, thrombin cleavage, Superdex 75), labelled with fluorescein maleimide) MPQLNGGGGDDLGANDELISFKDAGEQEEKC(fluorescein maleimide)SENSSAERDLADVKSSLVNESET" parameter_measured=kon readout_units="M⁻¹ s⁻¹" numeric_value=6.05e+07
binder="TCF7L2 (1–54) S31C V44A, fluorescein-labelled (domain or fragment, UniProt Q9NQB0 1-54, looked up, One extra serine is left behind after thrombin cleavage of the tag; source: E. coli C41, purified (Ni-NTA, thrombin cleavage, Superdex 75), labelled with fluorescein maleimide) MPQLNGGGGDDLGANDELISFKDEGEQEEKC(fluorescein maleimide)SENSSAERDLADAKSSLVNESET" parameter_measured=kon readout_units="M⁻¹ s⁻¹" numeric_value=5.05e+07
